These measurements were taken from patent US20210261553A1.

- Target of assay: Recombinant G2019S-LRRK2 protein (Homo sapiens, UniProt Q5S007, G2019S)
- Construct: purchased Life Technologies PV4881
- Sequence (Q5S007 970-2527 G2019S limits assumed): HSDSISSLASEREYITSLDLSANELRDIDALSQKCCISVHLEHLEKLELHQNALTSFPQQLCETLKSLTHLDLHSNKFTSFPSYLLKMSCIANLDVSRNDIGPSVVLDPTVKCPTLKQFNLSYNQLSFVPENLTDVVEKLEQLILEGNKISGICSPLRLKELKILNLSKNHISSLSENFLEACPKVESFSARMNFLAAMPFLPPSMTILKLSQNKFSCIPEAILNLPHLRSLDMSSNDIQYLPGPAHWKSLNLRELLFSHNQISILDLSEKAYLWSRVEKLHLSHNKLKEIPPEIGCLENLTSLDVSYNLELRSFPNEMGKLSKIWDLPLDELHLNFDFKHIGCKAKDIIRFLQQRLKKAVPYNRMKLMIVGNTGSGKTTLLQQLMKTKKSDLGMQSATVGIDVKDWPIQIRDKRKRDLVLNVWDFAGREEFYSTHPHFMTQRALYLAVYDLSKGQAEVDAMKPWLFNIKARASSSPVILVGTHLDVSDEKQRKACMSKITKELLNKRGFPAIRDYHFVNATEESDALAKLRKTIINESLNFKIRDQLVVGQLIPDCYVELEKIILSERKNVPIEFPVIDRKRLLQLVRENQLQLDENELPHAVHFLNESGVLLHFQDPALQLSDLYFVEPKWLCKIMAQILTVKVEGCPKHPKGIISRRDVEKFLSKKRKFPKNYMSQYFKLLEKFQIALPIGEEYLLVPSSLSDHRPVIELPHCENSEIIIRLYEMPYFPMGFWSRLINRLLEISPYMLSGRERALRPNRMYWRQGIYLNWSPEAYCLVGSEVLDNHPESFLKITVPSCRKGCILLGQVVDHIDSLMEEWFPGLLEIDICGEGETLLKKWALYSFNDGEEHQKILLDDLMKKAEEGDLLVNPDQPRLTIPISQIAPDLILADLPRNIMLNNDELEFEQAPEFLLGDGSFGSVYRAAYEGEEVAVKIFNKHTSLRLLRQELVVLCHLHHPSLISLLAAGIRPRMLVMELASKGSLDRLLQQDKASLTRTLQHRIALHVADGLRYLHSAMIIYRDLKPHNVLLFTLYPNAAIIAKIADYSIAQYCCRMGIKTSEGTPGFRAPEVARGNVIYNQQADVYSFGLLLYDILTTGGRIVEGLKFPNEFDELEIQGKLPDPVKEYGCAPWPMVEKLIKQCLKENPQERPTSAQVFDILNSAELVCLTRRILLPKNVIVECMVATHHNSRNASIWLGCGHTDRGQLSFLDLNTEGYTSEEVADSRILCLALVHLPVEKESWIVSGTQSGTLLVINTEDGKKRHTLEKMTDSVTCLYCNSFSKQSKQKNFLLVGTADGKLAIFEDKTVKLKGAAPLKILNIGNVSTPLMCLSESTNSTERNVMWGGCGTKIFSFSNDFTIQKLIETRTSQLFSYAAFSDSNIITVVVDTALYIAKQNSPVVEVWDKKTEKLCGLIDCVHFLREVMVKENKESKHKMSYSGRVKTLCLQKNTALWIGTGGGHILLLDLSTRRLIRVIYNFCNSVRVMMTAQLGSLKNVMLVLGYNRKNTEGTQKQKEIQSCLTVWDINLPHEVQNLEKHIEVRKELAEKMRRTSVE
- Assay procedure: LRRK2 kinase activity assay (LanthaScreen TR-FRET), G2019S mutant
- Assay type: biochemical
- Measurement conditions: 400 nM LRRKtide, 25 μM ATP, 60 min at room temperature
Reported endpoint: IC50

| Compound | IC50 |
| --- | --- |
| CC(=O)Nc1[nH]nc2ccc(NC(=O)C3=C(C)N(C)c4nnnn4C3)cc12 [Example 28] | 1000 to 10000 nM |
| CC1=C(C(=O)Nc2ccc3[nH]ncc3c2)Cn2nnnc2N1C [Example 1] | ≤ 100 nM |
| CC1=C(C(=O)Nc2ccc3[nH]ncc3c2)C(C)n2nnnc2N1C (single isomer, unassigned) [Example 2b] | 100 to 1000 nM |
| CC1=C(C(=O)Nc2cc3cn[nH]c3cn2)C(C)n2nnnc2N1C (racemic) [Example 23] | ≤ 100 nM |
| CC1=C(C(=O)Nc2ccc3[nH]ncc3c2)Cn2nnnc2N1CCN1CCOCC1 [Example 4] | 1000 to 10000 nM |

Query for Recombinant G2019S-LRRK2 protein (Homo sapiens, UniProt Q5S007, G2019S): what IC50 does the record show for CC1=C(C(=O)Nc2ccc3[nH]nc(-c4ccnc(N5CCOCC5)c4)c3c2)[C@H](C)n2nnnc2N1C (single isomer, unassigned) [Example 24b] ?
≤ 100 nM

Request: CC1=C(C(=O)Nc2cc3c[nH]nc3cc2N)Cn2nnnc2N1C [Example 21]
1000 to 10000 nM

Request: CC1=C(C(=O)Nc2ccc3[nH]ncc3c2)C(C)n2nnnc2N1C (stereo not shown) [Example 2]
≤ 100 nM

###

- Target of assay: Recombinant wild type LRRK2 protein (Homo sapiens)
- Assay procedure: LRRK2 kinase activity assay (LanthaScreen TR-FRET), wild type
- Measurement conditions: 400 nM LRRKtide, 25 μM ATP, 60 min at room temperature; read-out: LRRK2 WT IC50
- Experimental: LRRK2 kinase activity was measured using a LanthaScreen™ Kinase Activity Assay from ThermoFisher Scientific. Recombinant wild type or G2019S-LRRK2 protein (Life Technologies, PR8604B or PV4881, respectively), was incubated with a fluorescein-labeled peptide substrate called LRRKtide that is based upon ezrin/radixin/moesin (ERM) (Life Technologies, PV4901) in the presence of ATP and serially diluted compound. […]
Reported endpoint: IC50

Illustrative cases are given below, each with its answer.
| Molecule | Value measured |
| --- | --- |
| CC1=C(C(=O)Nc2ccc3n[nH]c(Br)c3c2)[C@@H](C)n2nnnc2N1C | ≤ 100 nM |
| CC1=C(C(=O)Nc2cnc3n[nH]cc3c2)C(C)n2nnnc2N1C (stereo not drawn) | 1000 to 10000 nM |
| CC1=C(C(=O)Nc2ccc3[nH]nc(-c4ccnc(N5CCOCC5)c4)c3c2)[C@H](C)n2nnnc2N1C (single isomer, unassigned) [Example 24b] | ≤ 100 nM |
| CC1=C(C(=O)Nc2ccc3[nH]c(=O)n(C)c3c2)[C@@H](C)n2nnnc2N1C | 1000 to 10000 nM |
| CC1=C(C(=O)Nc2cc3c[nH]nc3cc2N)Cn2nnnc2N1C | 1000 to 10000 nM |
| COc1cc2n[nH]cc2cc1NC(=O)C1=C(C)N(C)c2nnnn2C1 | > 10000 nM |
| CC1=C(C(=O)Nc2ccc3[nH]ncc3c2)C(C)n2nnnc2N1C (single isomer, unassigned) [Example 2a] | ≤ 100 nM |
| CC1=C(C(=S)Nc2ccc3[nH]ncc3c2)Cn2nnnc2N1C | 100 to 1000 nM |
| CC1=C(C(=O)Nc2ccc3n[nH]c(NC(=O)Cc4ccc(N(C)C)cc4)c3c2)Cn2nnnc2N1C | 1000 to 10000 nM |
| CC1=C(C(=O)Nc2ccc3[nH]ncc3c2)C(C)(C)n2nnnc2N1C | 1000 to 10000 nM |

For `CC1=C(C(=O)Nc2ccc3c(N)nccc3c2)[C@@H](C)n2nnnc2N1C` , what is its reported IC50?
100 to 1000 nM

Request: `CC1=C(C(=O)Nc2ccc3[nH]nc(Br)c3c2)Cn2nnnc2N1C`
≤ 100 nM

###

IC50 by entry:
- Target of assay: Recombinant wild type LRRK2 protein (Homo sapiens, UniProt Q5S007)
- Sequence (Q5S007 whole entry): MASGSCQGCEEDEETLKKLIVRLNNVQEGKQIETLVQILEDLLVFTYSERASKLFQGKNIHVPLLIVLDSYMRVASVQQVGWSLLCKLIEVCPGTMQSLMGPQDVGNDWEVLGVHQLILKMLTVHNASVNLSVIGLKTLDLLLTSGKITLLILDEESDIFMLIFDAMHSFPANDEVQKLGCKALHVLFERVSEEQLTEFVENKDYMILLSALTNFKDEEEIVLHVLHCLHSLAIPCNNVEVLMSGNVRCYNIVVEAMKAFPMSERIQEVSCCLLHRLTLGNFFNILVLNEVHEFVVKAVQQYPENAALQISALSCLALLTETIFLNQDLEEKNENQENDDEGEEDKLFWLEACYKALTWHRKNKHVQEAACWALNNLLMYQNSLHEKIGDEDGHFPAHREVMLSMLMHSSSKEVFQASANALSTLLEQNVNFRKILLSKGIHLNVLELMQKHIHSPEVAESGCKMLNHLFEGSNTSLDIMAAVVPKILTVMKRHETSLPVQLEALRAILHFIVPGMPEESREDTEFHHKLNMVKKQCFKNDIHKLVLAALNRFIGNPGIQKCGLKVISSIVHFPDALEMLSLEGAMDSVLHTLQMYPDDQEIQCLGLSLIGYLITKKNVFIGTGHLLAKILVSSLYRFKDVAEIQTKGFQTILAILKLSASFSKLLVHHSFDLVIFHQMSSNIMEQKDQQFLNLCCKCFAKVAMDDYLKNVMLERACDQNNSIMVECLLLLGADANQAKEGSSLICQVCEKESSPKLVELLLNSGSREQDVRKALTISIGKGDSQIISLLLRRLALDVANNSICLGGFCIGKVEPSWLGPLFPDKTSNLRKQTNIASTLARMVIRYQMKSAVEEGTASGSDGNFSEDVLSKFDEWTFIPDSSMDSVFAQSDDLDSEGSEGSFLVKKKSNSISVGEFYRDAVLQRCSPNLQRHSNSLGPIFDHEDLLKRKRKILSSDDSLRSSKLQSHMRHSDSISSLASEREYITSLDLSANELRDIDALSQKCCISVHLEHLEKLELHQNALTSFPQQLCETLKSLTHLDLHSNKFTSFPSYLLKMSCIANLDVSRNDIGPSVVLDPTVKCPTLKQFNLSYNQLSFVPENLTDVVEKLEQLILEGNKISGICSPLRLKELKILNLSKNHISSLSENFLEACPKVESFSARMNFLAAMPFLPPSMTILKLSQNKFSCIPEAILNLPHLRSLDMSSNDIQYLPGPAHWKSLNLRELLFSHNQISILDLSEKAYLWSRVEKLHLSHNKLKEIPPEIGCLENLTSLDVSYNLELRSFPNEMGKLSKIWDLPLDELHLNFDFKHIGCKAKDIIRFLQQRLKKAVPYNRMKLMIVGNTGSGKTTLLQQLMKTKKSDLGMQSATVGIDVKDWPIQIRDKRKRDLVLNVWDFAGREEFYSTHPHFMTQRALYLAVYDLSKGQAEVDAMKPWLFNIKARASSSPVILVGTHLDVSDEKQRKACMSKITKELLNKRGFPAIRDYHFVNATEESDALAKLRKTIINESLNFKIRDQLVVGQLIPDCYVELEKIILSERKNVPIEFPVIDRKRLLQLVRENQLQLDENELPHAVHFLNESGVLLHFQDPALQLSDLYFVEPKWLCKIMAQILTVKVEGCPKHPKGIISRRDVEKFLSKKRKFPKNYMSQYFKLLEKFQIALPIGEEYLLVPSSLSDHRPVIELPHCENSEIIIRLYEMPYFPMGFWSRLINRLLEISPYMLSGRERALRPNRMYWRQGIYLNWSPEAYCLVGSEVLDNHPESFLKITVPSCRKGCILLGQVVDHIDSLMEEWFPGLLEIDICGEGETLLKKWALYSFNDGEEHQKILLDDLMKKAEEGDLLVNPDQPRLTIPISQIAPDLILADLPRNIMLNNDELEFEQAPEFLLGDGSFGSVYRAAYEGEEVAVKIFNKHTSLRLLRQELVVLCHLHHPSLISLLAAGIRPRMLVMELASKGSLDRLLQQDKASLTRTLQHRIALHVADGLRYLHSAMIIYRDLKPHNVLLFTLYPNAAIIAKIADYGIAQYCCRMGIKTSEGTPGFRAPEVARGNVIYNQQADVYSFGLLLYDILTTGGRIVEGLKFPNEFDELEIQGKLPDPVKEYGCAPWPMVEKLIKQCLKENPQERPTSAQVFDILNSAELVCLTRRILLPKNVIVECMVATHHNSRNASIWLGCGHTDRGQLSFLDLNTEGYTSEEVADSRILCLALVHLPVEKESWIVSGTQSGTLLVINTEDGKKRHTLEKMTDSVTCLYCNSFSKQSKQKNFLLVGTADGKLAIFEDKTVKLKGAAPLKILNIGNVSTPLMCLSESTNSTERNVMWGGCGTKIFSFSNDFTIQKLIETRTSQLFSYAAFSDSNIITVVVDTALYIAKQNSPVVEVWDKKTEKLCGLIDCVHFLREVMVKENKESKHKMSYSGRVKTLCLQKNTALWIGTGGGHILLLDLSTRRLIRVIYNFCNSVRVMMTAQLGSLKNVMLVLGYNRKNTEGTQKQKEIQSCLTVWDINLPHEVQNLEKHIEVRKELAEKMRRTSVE
- Assay procedure: LRRK2 kinase activity assay (LanthaScreen TR-FRET), wild type
- Measurement conditions: 400 nM LRRKtide, 25 μM ATP, 60 min at room temperature; read-out: LRRK2 WT IC50

Illustrative cases are given below, each with its answer.
| Molecule | IC50 |
| --- | --- |
| CC1=C(C(=O)Nc2ccc3[nH]ncc3c2)Cn2nnnc2N1CCN1CCOCC1 [Example 4] | 1 to 10 µM |
| CC1=C(C(=O)Nc2ccc3[nH]ncc3c2)C(C)n2nnnc2N1C (stereo not drawn) [Example 2] | 0.1 to 1 µM |
| COC(=O)c1c(NC(=O)C2=C(C)N(C)c3nnnn3C2)ccc2n[nH]cc12 [Example 61] | > 10 µM |
| CC1=C(C(=O)Nc2ccc3[nH]nc(-c4ccnc(N5CCOCC5)c4)c3c2)[C@@H](C)n2nnnc2N1C (single isomer, unassigned) [Example 24a] | ≤ 0.1 µM |
| CC1=C(C(=O)Nc2ccc3[nH]ncc3c2)Cn2nnnc2N1C [Example 1] | 0.1 to 1 µM |

For CC1=C(C(=O)Nc2ccc3[nH]ncc3c2)C(C)n2nnnc2N1C (single isomer, unassigned) [Example 2b] , what is its reported IC50?
1 to 10 µM

Request: CC1=C(C(=O)Nc2cc3c[nH]nc3cc2F)Cn2nnnc2N1C [Example 19]
0.1 to 1 µM

Request: CC1=C(C(=O)Nc2cc3cn[nH]c3cn2)C(C)n2nnnc2N1C (racemic) [Example 23]
0.1 to 1 µM

Request: CCC1=C(C(=O)Nc2ccc3[nH]ncc3c2)Cn2nnnc2N1C [Example 5]
0.1 to 1 µM

###

- Target of assay: Recombinant G2019S-LRRK2 protein (Homo sapiens, UniProt Q5S007, G2019S)
- Assay procedure: LRRK2 kinase activity assay (LanthaScreen TR-FRET), G2019S mutant
- Measurement conditions: 400 nM LRRKtide, 25 μM ATP, 60 min at room temperature
pIC50: −log10 of the molar value.
Reported endpoint: pIC50

| Molecule | Target of assay | Value measured |
| --- | --- | --- |
| CC1=C(C(=O)Nc2cnc3n[nH]cc3c2)C(C)n2nnnc2N1C (centres unmarked) | Recombinant G2019S-LRRK2 protein (Homo sapiens, UniProt Q5S007, G2019S) | 6.00 to 7.00 |
| CC1=C(C(=O)Nc2ccc3[nH]nc(-c4ccnc(N5CCOCC5)c4)c3c2)Cn2nnnc2N1C | Recombinant G2019S-LRRK2 protein (Homo sapiens, UniProt Q5S007, G2019S) | ≥ 7.00 |
| CC1=C(C(=O)Nc2ccc3[nH]nc(-c4ccc(S(N)(=O)=O)cc4)c3c2)Cn2nnnc2N1C | Recombinant G2019S-LRRK2 protein (Homo sapiens, UniProt Q5S007, G2019S) | ≥ 7.00 |
| CC1=C(C(=O)Nc2ccc3c(c2)CC(=O)N3)Cn2nnnc2N1C | Recombinant G2019S-LRRK2 protein (Homo sapiens, UniProt Q5S007, G2019S) | 5.00 to 6.00 |
| CCC1C(C(=O)Nc2ccc3[nH]ncc3c2)=C(C)N(C)c2nnnn21 (racemic) [Example 8] | Recombinant G2019S-LRRK2 protein (Homo sapiens, UniProt Q5S007, G2019S) | ≥ 7.00 |

For `CCC1=C(C(=O)Nc2ccc3[nH]ncc3c2)Cn2nnnc2N1C` , what is its reported pIC50?
6.00 to 7.00

Request: CC1=C(C(=O)Nc2cc3c[nH]nc3cc2N)C(C)n2nnnc2N1C (centres unmarked)
5.00 to 6.00

Request: CCC1C(C(=O)Nc2ccc3[nH]ncc3c2)=C(C)N(C)c2nnnn21 (single isomer, unassigned) [Example 8a]
≥ 7.00

###

IC50 by entry:
- Target of assay: Recombinant G2019S-LRRK2 protein (Homo sapiens, UniProt Q5S007, G2019S)
- Assay procedure: LRRK2 kinase activity assay (LanthaScreen TR-FRET), G2019S mutant
- Measurement conditions: 400 nM LRRKtide, 25 μM ATP, 60 min at room temperature

Illustrative cases are given below, each with its answer.
| Molecule | IC50 |
| --- | --- |
| CC1=C(C(=O)Nc2ccc3[nH]nc(-c4ccncc4)c3c2)Cn2nnnc2N1C [Example 6] | ≤ 100 nM |
| CC1=C(C(=S)Nc2ccc3[nH]ncc3c2)Cn2nnnc2N1C [Example 15] | ≤ 100 nM |
| CC1=C(C(=O)Nc2ccc3[nH]ncc3c2)Cn2nnnc2N1C(=O)N(C)C [Example 12] | ≤ 100 nM |

Kindly review the next molecule as well.
For CCC1C(C(=O)Nc2ccc3[nH]ncc3c2)=C(C)N(C)c2nnnn21 (single isomer, unassigned) [Example 8b] , what is its reported IC50?
≤ 100 nM
